# Test system: PKG cKD line
# assay_method_text: Compound susceptibility assay using cKD lines (72 h, Renilla luciferase)
# Assay type: cell-based, Plasmodium falciparum
# conditions_used: Plasmodium falciparum, PKG cKD line, Control, [aTc] used 50.0
attribute_measured: IC50 (nM)

> print(dat)
                               smiles.entry  attribute.measured  observed
1  CC(C)(CN)c1nc(-c2ccc(Cl)c(O)c2)c(-c2ccncc2)[nH]1                IC50      27.4

---

# tested_target: calcium-dependent protein kinase 1 (CDPK1) (PF3D7_0217500) (Plasmodium falciparum)
# Construct: endogenous in cells; host or cells: P. falciparum asexual blood-stage parasites (trophozoite stage)
# Sequence (P62344 whole entry): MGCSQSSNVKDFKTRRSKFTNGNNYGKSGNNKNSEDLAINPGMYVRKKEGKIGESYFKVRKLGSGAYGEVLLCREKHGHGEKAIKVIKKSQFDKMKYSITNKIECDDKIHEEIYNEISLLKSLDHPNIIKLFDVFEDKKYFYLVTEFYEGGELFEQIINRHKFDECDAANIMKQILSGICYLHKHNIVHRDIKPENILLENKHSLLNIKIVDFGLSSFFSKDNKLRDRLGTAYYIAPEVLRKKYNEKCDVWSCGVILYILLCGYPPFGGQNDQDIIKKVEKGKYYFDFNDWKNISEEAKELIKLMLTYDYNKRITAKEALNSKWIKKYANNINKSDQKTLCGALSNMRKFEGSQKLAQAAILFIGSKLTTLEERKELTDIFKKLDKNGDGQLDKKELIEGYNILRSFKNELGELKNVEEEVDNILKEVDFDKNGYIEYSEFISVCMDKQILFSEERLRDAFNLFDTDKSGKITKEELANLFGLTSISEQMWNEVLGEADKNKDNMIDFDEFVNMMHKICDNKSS
# assay_method_text: Competitive chemoproteomics in Pf lysates (Kinobeads / bead-immobilized compound)
# Assay type: binding
# conditions_used: two follow-up experiments with lower concentrations; read-out: Kdapp, CDPK1
attribute_measured: Kd

> print(dat)
                                   molecule                             tested.target  attribute.measured       observed
1  CC(C)(CN)c1nc(-c2ccc(Cl)c(O)c2)c(-c2ccncc2)[nH]1 [MMV030084]  calcium-dependent protein kinase 1 (CDPK1) (PF3D7_0217500) (Plasmodium falciparum)                  Kd  215 to 220 nM
